B1: Gamma-crystallin D, residues 90 to 170; numbered along this chain, P07320 (parent)
chain: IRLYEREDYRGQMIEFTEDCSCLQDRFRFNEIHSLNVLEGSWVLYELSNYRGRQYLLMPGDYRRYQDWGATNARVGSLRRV

variants of: B1; experiment: abundance fitness (aPCA) (normalised: wild type 0, dead -1); higher = more abundant; growth selection in yeast, the domain comes from the species named; settings: Homo sapiens
experimental endpoint: abundance fitness
# answer = number (no unit)

These solved cases illustrate the format of a correct answer.
- sequence change: "I14W"
  readout number: -0.09
- sequence change: "E18G"
  readout number: -0.088

Below: the item to evaluate.
Noted for T17E : its abundance fitness reads -0.089
